// provenance: the supplement of paper PMC7125110

B1: glmS ribozyme (parent)
chain: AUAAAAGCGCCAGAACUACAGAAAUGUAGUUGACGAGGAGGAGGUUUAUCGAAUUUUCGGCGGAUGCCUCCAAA

Variants of: B1
measurement.description: self-cleavage kobs at 10000 uM GlcN6P; higher = faster cleavage; RNA array
condition.description: with glucosamine-6-phosphate
Variants at the floor of the assay were thinned out.
Returns Met if the recorded self-cleavage kobs at 10000 uM GlcN6P is greater than or equal to 0.0005 s⁻¹, and Not met otherwise.

These solved cases illustrate the format of a correct answer.
# mutation.spec, answer.label
records = [
    ("G7U A36G", "Not met"),
    ("U31C G32C A33U C34A U49A", "Not met"),
    ("G7U A52C", "Not met"),
    ("A39G G40A A53C", "Met"),
    ("G29C G66U", "Not met"),
]

Req: Does C11G G29C A52G U55A C58A have a reported self-cleavage kobs at 10000 uM GlcN6P of at least 0.0005 s⁻¹?
Resp: Not met

Req: Evaluate A53G A64C : self-cleavage kobs at 10000 uM GlcN6P at minimum 0.0005 s⁻¹?
Resp: Not met

Req: For this variant, is measured self-cleavage kobs at 10000 uM GlcN6P 0.0005 s⁻¹ or higher? U31G A48C
Resp: Not met

Req: Test whether the variant U56G C58U C67A records self-cleavage kobs at 10000 uM GlcN6P of 0.0005 s⁻¹ or higher.
Resp: Not met

Req: Check this variant for self-cleavage kobs at 10000 uM GlcN6P at or above 0.0005 s⁻¹: C16A U49C
Resp: Not met

Req: Textbook exercise: given the entry A53G A64U , state whether its self-cleavage kobs at 10000 uM GlcN6P is greater than or equal to 0.0005 s⁻¹.
Resp: Not met

Req: Hi, just wondering whether C11U G40C shows self-cleavage kobs at 10000 uM GlcN6P of 0.0005 s⁻¹ or higher.
Resp: Not met
